Listing of recorded Diffusion by entry.
Species: Rattus norvegicus
assay-name: Percent diffusion through fuzzy rat skin after 48 h of incubation
Assay type: ADME
condition-info: in vitro
Entry rule: numbers only, all in %.

Examples with their reported Diffusion follow.
CC(C)NCC(O)COc1cccc2[nH]ccc12 (stereo not drawn) [PINDOLOL]: 0.03
CC(C)NCC(O)COc1cccc2ccccc12 (stereo not drawn) [PROPRANOLOL]: 2.4
CC(=O)OCOC(=O)N(CC(O)COc1nsnc1N1CCOCC1)C(C)(C)C (stereo not drawn): 0.53
CC(C)(C)NC[C@H](O)COc1nsnc1N1CCOCC1 [TIMOLOL]: 18.14
CC(=O)OC(C)OC(=O)N(CC(O)COc1cccc2[nH]ccc12)C(C)C (stereo not drawn): 0.35
CC(C)NCC(O)COc1ccc(CC(N)=O)cc1 (stereo not drawn) [ATENOLOL]: 0.13

input: Which measured Diffusion value corresponds to CC(=O)OC(C)OC(=O)N(CC(O)COc1ccc(CC(N)=O)cc1)C(C)C (stereo not drawn) ?
output: 0.49

input: Which measured Diffusion value corresponds to CC(=O)OC(C)OC(=O)N(CC(O)COc1cccc2ccccc12)C(C)C (stereo not drawn) ?
output: 0.45

###

assay-name: Hydrolysis half-life at 37 degree C in phosphate buffer at pH 7.4
Type: ADME
measurement-name: half-life (min)
Entry rule: numbers only, all in min.

CC(=O)OC(C)OC(=O)N(CC(O)COc1cccc2ccccc12)C(C)C (configuration not stated): 2670

With those in mind, consider the next molecule.
input: Which measured half-life value corresponds to CC(=O)OCOC(=O)N(CC(O)COc1nsnc1N1CCOCC1)C(C)(C)C (configuration not stated) ?
output: 1410

###

assay-name: Hydrolysis half-life at 37 degree C in rat plasma
Type: ADME
Listing of recorded half-life by entry.
Entry rule: numbers only, all in min.

CC(=O)OCOC(=O)N(CC(O)COc1nsnc1N1CCOCC1)C(C)(C)C (configuration not stated): 3

With those in mind, consider the next compound.
input: Which measured half-life value corresponds to CC(=O)OC(C)OC(=O)N(CC(O)COc1cccc2ccccc12)C(C)C (configuration not stated) ?
output: 3

###

assay-name: Hydrolysis half-life at 37 degree C in dog plasma
Format: ADME, Canis lupus familiaris
measurement-name: half-life (min)
Entry rule: numbers only, all in min.

input: Which measured half-life value corresponds to CC(=O)OCOC(=O)N(CC(O)COc1nsnc1N1CCOCC1)C(C)(C)C (stereo unspecified) ?
output: 9.7
